system: SK-MEL-2; assay: NCI tumour cell line growth inhibition, 48 h
The source made the active and inactive calls. No stated cut-off is given here; in the data, active = GI50 up to about 1.1 µM and inactive = higher.
Result category, one only: class 1 = active, class 0 = inactive

compound=CCOc1ccc(-n2nnc3c(N)nc(N)nc32)cc1 category="class 0"
compound="CCOc1ccc(NCC2CC/C(=C\\c3ccccc3OC)C2=O)cc1 (stereo not given)" category="class 0"
compound="CCC(N)(C(=O)O)C(C)C (stereo not given)" category="class 0"
compound=C#C[C@@]1(O)CCCC2=CC(=O)C[C@]21C category="class 0"
compound=C/C(=N\Nc1nc2ccccc2s1)c1cnccn1 category="class 0"

Called result for Brc1ccc(C2SCc3nc4ccccc4n32)cc1 (stereo not given) class 0

Called result for CN(C)CCNCCCNc1c2ccccc2nc2cccc([N+](=O)[O-])c12 class 1
